Target: sGC α1/β1 heterodimer (Homo sapiens, UniProt Q02108+Q02153)
Construct: expressed in transfected cells; host or cells: CHO-K1 (clone #7, CHO-K1/sGC)
Sequence (Q02108 whole entry): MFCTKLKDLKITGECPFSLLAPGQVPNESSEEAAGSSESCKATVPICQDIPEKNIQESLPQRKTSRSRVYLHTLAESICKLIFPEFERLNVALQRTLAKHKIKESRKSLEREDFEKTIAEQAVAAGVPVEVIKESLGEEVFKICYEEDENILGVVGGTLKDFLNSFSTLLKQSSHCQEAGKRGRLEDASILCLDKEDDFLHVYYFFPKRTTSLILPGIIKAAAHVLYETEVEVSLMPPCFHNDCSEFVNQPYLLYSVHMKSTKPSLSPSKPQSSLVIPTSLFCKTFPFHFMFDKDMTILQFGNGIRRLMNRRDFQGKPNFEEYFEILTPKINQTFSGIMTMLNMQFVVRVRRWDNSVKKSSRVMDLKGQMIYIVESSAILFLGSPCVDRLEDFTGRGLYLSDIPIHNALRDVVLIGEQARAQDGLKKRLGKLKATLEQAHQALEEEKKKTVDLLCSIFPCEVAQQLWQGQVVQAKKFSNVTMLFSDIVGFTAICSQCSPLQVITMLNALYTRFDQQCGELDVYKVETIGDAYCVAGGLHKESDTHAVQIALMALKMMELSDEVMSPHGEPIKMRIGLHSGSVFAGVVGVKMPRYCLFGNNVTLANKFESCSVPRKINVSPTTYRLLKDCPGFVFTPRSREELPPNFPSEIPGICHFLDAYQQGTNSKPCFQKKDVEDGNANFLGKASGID
Sequence (Q02153 whole entry): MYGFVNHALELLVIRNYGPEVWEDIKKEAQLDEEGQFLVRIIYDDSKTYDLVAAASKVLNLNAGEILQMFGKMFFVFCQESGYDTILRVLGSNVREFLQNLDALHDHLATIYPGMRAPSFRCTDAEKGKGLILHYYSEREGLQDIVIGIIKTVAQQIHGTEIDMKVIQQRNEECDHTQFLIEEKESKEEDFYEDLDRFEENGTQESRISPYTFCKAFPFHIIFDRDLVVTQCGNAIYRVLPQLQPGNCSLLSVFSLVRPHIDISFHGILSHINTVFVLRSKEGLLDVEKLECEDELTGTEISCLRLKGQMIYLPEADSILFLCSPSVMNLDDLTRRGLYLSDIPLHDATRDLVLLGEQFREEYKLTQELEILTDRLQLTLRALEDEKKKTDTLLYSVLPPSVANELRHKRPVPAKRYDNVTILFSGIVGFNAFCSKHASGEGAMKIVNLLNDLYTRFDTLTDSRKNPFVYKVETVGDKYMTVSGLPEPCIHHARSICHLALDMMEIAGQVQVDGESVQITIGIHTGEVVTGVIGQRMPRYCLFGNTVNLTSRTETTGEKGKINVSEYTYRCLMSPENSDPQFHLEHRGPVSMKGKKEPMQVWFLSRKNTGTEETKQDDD
Test: Cell-based sGC functional assay (CASA assay): cGMP generation in CHO-K1/sGC cells, HTRF detection
Settings: CHO-K1, percent activation relative to standard Compound A in CHO-K1/sGC cells; read-out: % Act.
MEASURED_PARAMETER: Emax (%)

Consider the following illustrative entries.
MOLECULE: Nc1nc(-c2cn3ccnc3c(CCC(F)(F)C(F)(F)F)n2)nc2c1C(c1ccc(F)cn1)(C1CC1)C(=O)N2 (stereo not drawn) [Example 223A]
TESTED_SYSTEM: sGC α1/β1 heterodimer (Homo sapiens, UniProt Q02108+Q02153)
Emax [%]: 84

MOLECULE: Nc1nc(-c2cn3ccnc3c(CCC(F)(F)F)n2)nc2c1C(c1ccc(F)cc1)(C1CCC1)C(=O)N2 (single isomer, unassigned) [Example 345B]
TESTED_SYSTEM: sGC α1/β1 heterodimer (Homo sapiens, UniProt Q02108+Q02153)
Emax [%]: 148

MOLECULE: CCC1(C)C(=O)Nc2nc(-c3cn4ccnc4c(Cc4ccccc4)n3)nc(N)c21 (stereo not drawn) [Example 84A]
TESTED_SYSTEM: sGC α1/β1 heterodimer (Homo sapiens, UniProt Q02108+Q02153)
Emax [%]: 90

MOLECULE: CC1(c2ccc(C3CC3)cn2)C(=O)Nc2nc(-c3cn4ccnc4c(CCC(F)(F)C(F)(F)F)n3)nc(N)c21 (stereo not drawn) [Example 227B]
TESTED_SYSTEM: sGC α1/β1 heterodimer (Homo sapiens, UniProt Q02108+Q02153)
Emax [%]: 111

MOLECULE: CCCc1nc(-c2nc(N)c3c(n2)NC(=O)C3(c2ccc(C(F)(F)F)cn2)C2CC2)cn2ccnc12 (stereo not drawn) [Example 341A]
TESTED_SYSTEM: sGC α1/β1 heterodimer (Homo sapiens, UniProt Q02108+Q02153)
Emax [%]: 106

MOLECULE: Cc1ccc(C2(C)C(=O)Nc3nc(-c4cn5ccnc5c(Cc5ccc(F)cc5)n4)nc(N)c32)cn1 (stereo not drawn) [Example 105A]
TESTED_SYSTEM: sGC α1/β1 heterodimer (Homo sapiens, UniProt Q02108+Q02153)
Emax [%]: 102

MOLECULE: CCCCc1nc(-c2nc(N)c3c(n2)NC(=O)C3(C)c2ccc(Cl)cc2)cn2ccnc12 (stereo not drawn) [Example 10A]
TESTED_SYSTEM: sGC α1/β1 heterodimer (Homo sapiens, UniProt Q02108+Q02153)
Emax [%]: 120

MOLECULE: CC1(c2ccc(Cl)cc2)C(=O)Nc2nc(-c3cn4ccnc4c(Cc4ccc(F)c(F)c4)n3)nc(N)c21 (stereo not drawn) [Example 97A]
TESTED_SYSTEM: sGC α1/β1 heterodimer (Homo sapiens, UniProt Q02108+Q02153)
Emax [%]: 145

I = CC1(c2ccccc2)C(=O)Nc2nc(-c3cn4c(Cl)cnc4c(CCC(F)(F)C(F)(F)F)n3)nc(N)c21 (stereo not drawn) [Example 256B]
II = CC1(c2ccc(Cl)cc2)C(=O)Nc2nc(-c3cn4ccnc4cn3)nc(NCCCC(F)(F)F)c21 (stereo not drawn) [Example 285A]
III = CCc1nc(C2(C)C(=O)Nc3nc(-c4cn5ccnc5c(CCC(F)(F)C(F)(F)F)n4)nc(N)c32)no1 (stereo not drawn) [Example 320B]
Inquiry: Which order do these items take when sorted by rising Emax? List them. API: response body holds the labels in the requested order.
Reply text: I, II, III

I = COC(=O)c1cccc(C2(C)C(=O)Nc3nc(-c4cn5ccnc5c(CCC(F)(F)C(F)(F)F)n4)nc(N)c32)c1 (single isomer, unassigned) [Example 270B]
II = CC1(c2ccc(F)cn2)C(=O)Nc2nc(-c3cn4ccnc4c(CCC(F)(F)C(F)(F)F)n3)nc(NC3CC3)c21 (stereo not drawn) [Example 292B]
Inquiry: Determine, for I and II , which has the greater value of Emax. Output the label that corresponds to your choice.
Reply text: II

I = CCC1(c2ccc(F)cc2)C(=O)Nc2nc(-c3cn4c(F)cnc4c(CCC(F)(F)C(F)(F)F)n3)nc(N)c21 (stereo not drawn) [Example 276A]
II = COc1ccc(C2(C3CC3)C(=O)Nc3nc(-c4cn5ccnc5c(CCC(F)(F)C(F)(F)F)n4)nc(N)c32)cn1 (stereo not drawn) [Example 343A]
Inquiry: # argmax over Emax for candidates I and II Your answer should be the label of the entry you select.
Reply text: II
(II: 121%, I: 80%)
